assay: NCI Yeast Anticancer Drug Screen. Data for the mgt1 strain (AID 153); conditions: S. cerevisiae mgt1 mutant growth inhibition; at 100.0 µM
The panel holds about 79,000 compounds, 15% with a hit somewhere; the sample as a whole holds those more often. Active and inactive are the calls of the source. No stated cut-off is given here; in the data, active means growth inhibition above about 70%; inactive means the rest.
Log the outcome using a class from active, inactive

## Task Write down the call the test reported for this molecule. Item: CN(C)CCNC(=O)c1cccc2nc3c(ccc4ccccc43)nc12
## Result active

## Task I'd appreciate the recorded outcome for c1cc2ccc3cc4ncccc4c4ccc(c1)c2c34 from this test.
## Result active

## Task What is the recorded call for this molecule in the test? Cc1cccc[c]1[Sn]([Cl])([S]/C(C#N)=N/N=C/c1ccc(N(C)C)cc1)[c]1ccccc1C
## Result active

## Task Please indicate how the test categorized CCOc1ccc2ccc3cccnc3c2n1 .
## Result inactive

## Task Hi team, can someone confirm the assay call for CC[C@@]1(OC(=O)CN(C)C)C(=O)OCc2c1cc1n(c2=O)Cc2cc3ccccc3nc2-1 ?
## Result active

====

Please go through the items and note down their growth inhibition.
assay: NCI Yeast Anticancer Drug Screen. Data for the bub3 strain (AID 167); settings: S. cerevisiae bub3 mutant strain, at 50.0 µM, hits give high values
Compounds without any hit were thinned out: in the full panel of roughly 79,000, 15% have a hit. Activity calls are given as the source filed them. Cut-off read from the data, not from the text of the source: active = growth inhibition above about 70%; inactive = the rest.

## Task # get_value(readout='growth inhibition', item= N=c1oc2ccccc2cc1-c1nc2ccccc2[nH]1 )
## Result 33.8% (inactive)

## Task Reported growth inhibition, molecule O=C(Nc1ccn(C2CC(O)C(COC(c3ccccc3)(c3ccccc3)c3ccccc3)O2)c(=O)n1)c1ccccc1 (stereo not drawn) : ____
## Result 81.5% (active)

## Task Please report the recorded growth inhibition for Cc1ccc(Cl)c2c(=O)c3ccccc3[nH]c12 .
## Result 27.6% (inactive)

## Task Fill in: growth inhibition of c1cc(Nc2ccc3c(c2)OCO3)c2cc(C3CCCCC3)ccc2n1 is ___
## Result 98.6% (active)

## Task Quick check: growth inhibition of CC(C)(C)[Si](C)(C)OCC1OC(n2cnc3c(N)ncnc32)C2OC(=S)OC12 (stereo not drawn) ?
## Result 48.4% (inactive)

## Task Requested read-out: growth inhibition. Entry: CC(=O)O/N=C/c1c2ccccc2cc2ccccc12
## Result 43.1% (inactive)

## Task Name the reported growth inhibition value associated with the molecule Cc1cccc(N2CCN(C(=O)/C(=C/c3ccccc3)NC(=O)c3ccccc3)CC2)c1
## Result 10.1% (inactive)

## Task Please look up its growth inhibition: CCOC(=O)/C(O)=C(/C=N/C(=S)Nc1c(CC)cccc1CC)C(=O)OCC
## Result 67% (inactive)

## Task What does the record list as growth inhibition for COc1cc(C(C)(C)C)cc(OC)c1C(O)(c1c(OC)cc(C(C)(C)C)cc1OC)c1c(OC)cc(C(C)(C)C)cc1OC ?
## Result 75.8% (active)

## Task Sample Cc1cnccc1N=Nc1ccc(N(C)C)cc1 — what was its growth inhibition?
## Result 89% (active)

## Task Fill in the blank: the reported growth inhibition of S=C1NC2=C(CSC/C2=C\c2ccc(Cl)cc2)C(c2ccc(Cl)cc2)N1 (stereo not drawn) is ____.
## Result 94.8% (active)

## Task Need growth inhibition, item COc1ccc(C(=O)OCCc2ccccc2)cc1
## Result 56.5% (inactive)

## Task Value lookup for growth inhibition; key = c1ccc(C2=NNC3c4ccccc4-c4ccccc4N3C2)cc1 (stereo not drawn)
## Result 41% (inactive)

## Task Need growth inhibition, item CCSc1c2ccccc2c(-c2nc(F)nc(F)n2)n1CCc1ccccc1
## Result 86% (active)

## Task Request the reported growth inhibition associated with CCOC(=O)/C=C1\CCCn2c1ncc(C(=O)OCC)c2=O
## Result 59.5% (inactive)

## Task Record request: growth inhibition value, item N#C/C(=C1C=C/C(=N\O)C(Cl)=C\1)c1ccccc1
## Result 72.7% (active)

## Task I am curious: what growth inhibition value has been reported for CCC(C)/C(C)=N/NC(N)=O (stereo not drawn) ?
## Result 25% (inactive)

## Task Param item = CCOC(=O)C(NC(=O)c1ccccc1)[CH](c1ccccc1)[Sn]([c]1ccccc1)([c]1ccccc1)[c]1ccccc1 (stereo not drawn) ; retrieve measured growth inhibition.
## Result 98.7% (active)

====

test: NCI Yeast Anticancer Drug Screen. Data for the sgs1 strain (AID 173);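 further: 0% = growth of vehicle-only control cultures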; settings: S. cerevisiae sgs1 mutant, at 33.0 µM
The panel holds about 79,000 compounds, 15% with a hit somewhere; the sample as a whole holds those more often. Activity calls are given as the source filed them. Cut-off read from the data, not from the text of the source: active = growth inhibition above about 70%; inactive = the rest.
Mark one answer only. Choices: 1 (yes) for active, 0 (no) for inactive

## Task Look up the recorded call for O=C1OC(/C=C/c2ccccc2)Sc2ccccc21 (stereo not given) in this test.
## Result 0 (no)

## Task Dear all, I need the recorded test outcome for CC(=O)c1ccc(NCN2C(=O)c3ccccc3C2=O)cc1 , thank you.
## Result 1 (yes)

## Task Returns: the outcome recorded for Cc1cccc[c]1[Sn]([Cl])([S]/C(C#N)=N/N=C/c1ccc(N(C)C)cc1)[c]1ccccc1C in this assay.
## Result 0 (no)

## Task For c1cc2ccc3cc4ncccc4c4ccc(c1)c2c34 , what call appears in the results of this test?
## Result 1 (yes)

## Task Would you mind telling me which call this test gave CSc1ccc2c(c1)C(N1CCN(C)CC1)Cc1ccccc1S2 (stereo not given) ?
## Result 1 (yes)

====

assay: NCI Yeast Anticancer Drug Screen. Data for the rad18 strain (AID 177); details: S. cerevisiae rad18 mutant growth inhibition; at 11.0 µM; hits give high values
Compounds without any hit were thinned out: in the full panel of roughly 79,000, 15% have a hit.
Assignment: determine reported growth inhibition for the given compounds.
Dear colleague, please return just the value in %, with no unit written.

## Task Which growth inhibition is listed for CN1CCN(c2ccc3nc(-c4ccc5nc(-c6ccc(O)cc6)[nH]c5c4)[nH]c3c2)CC1 ?
## Result 97

## Task Quick one: growth inhibition of CN(C)N=Nc1ccc(NC=O)cc1 ?
## Result 35

## Task Would you mind telling me what growth inhibition value was observed for Cc1ccnc(NS(=O)(=O)c2ccc(Nc3c4ccccc4nc4ccccc34)cc2)n1 ?
## Result 36

## Task Quick one: growth inhibition of Cc1c(N=Nc2ccc(Cl)cc2)c(C)n(C2OC(CO)C(O)C(O)C2O)c(=S)c1C#N (stereo unspecified) ?
## Result 18

## Task Could you tell me which growth inhibition is on file for Cc1ccccc1C1=C(CC(=O)O)c2ccccc2CC1C (stereo unspecified) ?
## Result 38

## Task # query: growth inhibition of entry O=C1C=CC(=Nc2ccc3c(c2)Cc2cc(Cl)ccc2-3)O1
## Result 95

## Task May I ask what growth inhibition has been recorded for CC1C=CN(N(C)C)C2=C1C(=O)c1cnccc1C2=O (stereo unspecified) ?
## Result 90

## Task Requested field: growth inhibition. Item: CCCCCCCCCCCCCCCCOCC(Cl)COP(=O)(O)OP(=O)(O)OCC1OC(n2cnc3c(N)ncnc32)C(O)C1O (stereo unspecified)
## Result 22

## Task May I ask what growth inhibition has been recorded for CC(=O)O/N=C/c1c2ccccc2cc2ccccc12 ?
## Result 11

## Task Looking for the measured growth inhibition of Cc1ccc(Nc2n[nH]c(=S)s2)cc1C , can you help?
## Result 12

## Task Recorded growth inhibition of CCN(CC)c1cccc(Nc2nc3ccccc3s2)c1 , please.
## Result 6

## Task If you can, please state the reported growth inhibition value of CCOC(=O)C1=C(C)NC(C)=C(C(=O)OCC)C1c1cccc([N+](=O)[O-])c1 .
## Result 33

## Task Name the reported growth inhibition value associated with the compound CN(Cc1cccc2ccccc12)Cc1cccc2ccccc12
## Result -20

## Task I am curious: what growth inhibition value has been reported for O=Cc1ccccc1B(O)O ?
## Result 94

## Task Endpoint output: growth inhibition of CC1=NN(C(=O)CC(=O)N(C(=O)c2ccccc2)c2ccc(Cl)cc2)C(=O)C1N=Nc1ccc([N+](=O)[O-])cc1 (stereo unspecified) . Value?
## Result 62

## Task What value of measured growth inhibition is listed for CCN(CC)c1ccc(N=Nc2cc(S(=O)(=O)O)ccc2O)c(O)c1 ?
## Result 2

====

For each of the molecules below, state its growth inhibition.
test: NCI Yeast Anticancer Drug Screen. Data for the mgt1 strain (AID 153); conditions: S. cerevisiae mgt1 mutant growth inhibition; at 1.2 µM; hits give high values
This is part of a sample that, as a whole, favours compounds with a hit. Of some 79,000 tested, about 15% had one in any assay.
Just the number please, in %, no unit attached.

## Task Fill blank: measured growth inhibition of the molecule CC1=Cc2ccc(C)cc2C(=O)C1=O is ____.
## Result 27

## Task # input molecule: COc1cc(NCCCCCNC(C)C)c2ncccc2c1Cl ; wanted: its growth inhibition
## Result -5

## Task Name the recorded growth inhibition for O=CC(=C(I)I)c1ccccc1 .
## Result 17
